settings: % Viability non-Wnt responsive cells; further: test concentration or dose not given here
Where a SMILES comes first, the peptide text is derived from it.
observation_type: viability (%)
Hi! Could you send only the number? It should be in %, unit omitted.

Request the reported viability associated with CC[C@H](C)[C@H](NC(=O)[C@H](CC(C)C)NC(=O)[C@@H](NC(=O)[C@H](Cc1c[nH]c2ccccc12)NC(=O)[C@@H](N)CCSC)[C@@H](C)CC)C(=O)N[C@@H](CCO)C(=O)N[C@@H](Cc1ccccc1)C(=O)N[C@@H](Cc1c[nH]c2ccccc12)C(=O)NCC(=O)O [compound 144] (HELM PEPTIDE1{M.W.I.L.I.[O=C([C@H](CCO)N[*:1])[*:2]].F.W.G}$$$$V2.0)
106

Would you mind doing CC[C@H](C)[C@H](NC(=O)[C@H](CC(C)C)NC(=O)[C@H](Cc1ccccc1)NC(=O)[C@H](C)N(C)C(=O)[C@H](CCSC)NC(=O)[C@H](CCCNC(=N)N)NC(=O)[C@H](CO)NC(=O)[C@@H](N)CCSC)C(=O)N[C@@H](CO)C(=O)N[C@@H](Cc1ccccc1)C(=O)N[C@@H](Cc1c[nH]c2ccccc12)C(=O)NCC(=O)O [compound 50] (HELM PEPTIDE1{M.S.R.M.[meA].F.L.I.S.F.W.G}$$$$V2.0) as well?
96.7

Would you mind doing CC[C@H](C)[C@H](NC(=O)[C@H](CC(C)C)NC(=O)[C@@H](NC(=O)[C@H](Cc1c[nH]c2ccccc12)NC(=O)[C@@H](N)Cc1c[nH]cn1)[C@@H](C)CC)C(=O)N[C@@H](CS)C(=O)N[C@@H](Cc1ccccc1)C(=O)N[C@@H](Cc1c[nH]c2ccccc12)C(=O)NCC(=O)O [compound 118] (H-HWILICFWG-OH) as well?
99.9
